Listed next: entries and their corresponding IPOHE percentage phytotoxicity.
System: Ipomoea hederacea (IPOHE)
Assay: Post-emergence glasshouse spray test, visual percentage phytotoxicity after 13 days
Format: in vivo
Details: B1; 0.625 g/ha post-emergence
Only the number, expressed in %, is required.

>>> print(df.to_string())
                              smiles_string                measurement_name  measured
0  CCOC(=O)COc1ncccc1Oc1cc(-n2c(=O)cc(C(F)(F)F)n(C)c2=O)c(F)cc1Cl  IPOHE percentage phytotoxicity        70
1  FC(F)c1cc(-c2c(Cl)cccc2Oc2ncc(Cl)cn2)on1  IPOHE percentage phytotoxicity        32
2  Nc1c(F)c(-c2ccc3cc[nH]c3c2F)nc(C(=O)O)c1Cl  IPOHE percentage phytotoxicity        13
3  CS(=O)(=O)c1ccc(C(=O)C2C(=O)CCCC2=O)c(Cl)c1OCCC1OCCO1  IPOHE percentage phytotoxicity         3

Please turn your attention to the following entry.
Summary for this molecule, COc1c(Cl)ccc(-c2nc(C(=O)OCc3ccccc3)c(Cl)c(N)c2F)c1F : IPOHE percentage phytotoxicity is 13
